TEST NAME: Protein binding fraction (PBF) in nude mouse plasma
Assay type: in vitro ADME
CONDITION PARAMETERS: oral, 5 mg/kg; nude mouse plasma
EXPERIMENTAL READOUT: fraction unbound at 1 h
Form: value (number only, do not type unit).

Which measured fraction unbound at 1 h value corresponds to COc1cccc2c1c(O)c(C(=O)N(C)c1ccc(C(F)(F)F)cc1)c(=O)n2C ?
0.02

---

TEST NAME: Tissue distribution and metabolites in nude mice bearing CWR-22Rv1 cancers
Format: in vivo, mouse
CONDITION PARAMETERS: plasma, 4 hours post oral 5mg/kg tasquinimod
EXPERIMENTAL READOUT: percentage of total drug in plasma

Please report the recorded percentage of total drug in plasma for COc1cccc2c1c(O)c(C(=O)N(C)c1ccc(C(F)(F)F)cc1)c(=O)n2C .
93+/-6%

Look at this compound and give its reported percentage of total drug in plasma. COc1cccc2c1c(O)c(C(=O)Nc1ccc(C(F)(F)F)cc1)c(=O)n2C [Carboxamide-N-demethylate]
< 1%

// percentage of total drug in plasma lookup, key: COc1cccc2[nH]c(=O)c(C(=O)N(C)c3ccc(C(F)(F)F)cc3)c(O)c12 [Quinoline-N-demethylate]
< 1%

I have this compound here, CN(C(=O)c1c(O)c2c(O)cccc2n(C)c1=O)c1ccc(C(F)(F)F)cc1 [Quinoline-O-demethylate] , and I need its recorded percentage of total drug in plasma.
5+/-1%

// data source = paper PMC4226669
